B1: Storkhead-box protein 2, residues 64 to 141; numbered along this chain, Q9P2F5 (parent)
chain: SPISQSQFIPLGEILCLAISAMNSARKPVTQEALMEHLTTCFPGVPTPSQEILRHTLNTLVRERKIYPTPDGYFIVTP

- Variants of: B1
- method notes: abundance fitness (aPCA) (normalised: wild type 0, dead -1); higher = more abundant; growth selection in yeast, the domain comes from the species named
- experimental parameters: Homo sapiens
Consider the following variants; for each one, report its abundance fitness.
I only need the number, thanks.

[Q] State the recorded abundance fitness for this entry: `Q5E`
[A] -0.015

[Q] State the recorded abundance fitness for this entry: `C16M`
[A] -0.04

[Q] State the recorded abundance fitness for this entry: `L38R`
[A] -0.894

[Q] State the recorded abundance fitness for this entry: `R54C`
[A] -0.193

[Q] State the recorded abundance fitness for this entry: `T39R`
[A] 0.016

[Q] State the recorded abundance fitness for this entry: `K27L`
[A] -0.12

[Q] State the recorded abundance fitness for this entry: `K65N`
[A] -0.493

[Q] State the recorded abundance fitness for this entry: `E63Y`
[A] -0.033

[Q] State the recorded abundance fitness for this entry: `F8S`
[A] 0.017

[Q] State the recorded abundance fitness for this entry: `E63W`
[A] -0.075

[Q] State the recorded abundance fitness for this entry: `T77P`
[A] -0.003

[Q] State the recorded abundance fitness for this entry: `E36S`
[A] -0.001
